Test system: Escherichia coli TOP10;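 note: peptides expressed intracellularly from a pBAD plasmid library in pooled LB shake-flask culture, induced with 0.3% L-arabinose, DNA abundance read by NGS, three biological replicates, DESeq2 with apeglm shrinkage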
assayDetails: shrunken log2 fold change of peptide-encoding DNA abundance (4.5 h post-induction vs induction); higher = less antimicrobial activity (less host growth inhibition)
details: time post-induction: 4.5 h; library: site-saturation at positions 5, 18, 19, 20
Known shrunken log2 fold change of a selection of sequences
experimentalReadout: shrunken log2 fold change

1) RRIRKRPPRLPRPRPRPTENPRP :: 0.143
2) RRIRRRPPRLPRPRPRPWIVPRP :: 3
3) RRIRARPPRLPRPRPRPIGPPRP :: 0.537
4) RRIRLRPPRLPRPRPRPFCIPRP :: -0.22
5) RRIRKRPPRLPRPRPRPADAPRP :: 0.194
6) RRIRCRPPRLPRPRPRPHIAPRP :: -0.413
7) RRIRDRPPRLPRPRPRPETWPRP :: 0.0111
8) RRIRFRPPRLPRPRPRPMNMPRP :: -0.546
9) RRIRKRPPRLPRPRPRPAYSPRP :: -0.0338
10) RRIRCRPPRLPRPRPRPQIMPRP :: -0.352
11) RRIRPRPPRLPRPRPRPNGTPRP :: 0.247
12) RRIRRRPPRLPRPRPRPNKVPRP :: -0.213
13) RRIRQRPPRLPRPRPRPSGEPRP :: 0.0168
14) RRIRDRPPRLPRPRPRPDRHPRP :: -0.278
15) RRIRWRPPRLPRPRPRPLGGPRP :: 0.253
16) RRIRSRPPRLPRPRPRPGVCPRP :: 0.562
17) RRIRRRPPRLPRPRPRPANAPRP :: 0.055
18) RRIRLRPPRLPRPRPRPYNIPRP :: -1.31
19) RRIRCRPPRLPRPRPRPPMCPRP :: -0.23
20) RRIRFRPPRLPRPRPRPYIAPRP :: -1.11
21) RRIRVRPPRLPRPRPRPENRPRP :: -0.221
22) RRIRKRPPRLPRPRPRPEYIPRP :: -0.367
23) RRIRHRPPRLPRPRPRPKEFPRP :: -0.0336
24) RRIRMRPPRLPRPRPRPRFTPRP :: 0.323
25) RRIRDRPPRLPRPRPRPCGAPRP :: 0.838
26) RRIRHRPPRLPRPRPRPDMGPRP :: 0.00739
27) RRIRQRPPRLPRPRPRPIIQPRP :: -0.248
28) RRIRSRPPRLPRPRPRPASTPRP :: -0.16
29) RRIRNRPPRLPRPRPRPGTCPRP :: -0.0314
30) RRIRIRPPRLPRPRPRPGWCPRP :: -0.082
31) RRIRQRPPRLPRPRPRPSELPRP :: -0.159
32) RRIRRRPPRLPRPRPRPSQNPRP :: 0.0754
33) RRIRNRPPRLPRPRPRPPLFPRP :: 0.00419
34) RRIRSRPPRLPRPRPRPEKYPRP :: -1.28
35) RRIRWRPPRLPRPRPRPFNHPRP :: -0.405
36) RRIRARPPRLPRPRPRPFGCPRP :: 0.128
37) RRIRFRPPRLPRPRPRPLLSPRP :: 0.0127
38) RRIRYRPPRLPRPRPRPYDGPRP :: -0.155
39) RRIRTRPPRLPRPRPRPMHTPRP :: 0.0134
40) RRIRFRPPRLPRPRPRPTGLPRP :: -0.118
41) RRIRPRPPRLPRPRPRPRDDPRP :: 0.23
42) RRIRKRPPRLPRPRPRPMRQPRP :: 0.384
43) RRIRQRPPRLPRPRPRPSWNPRP :: -0.238
44) RRIRNRPPRLPRPRPRPHSFPRP :: -0.258
45) RRIRNRPPRLPRPRPRPEQWPRP :: -0.0114
46) RRIRVRPPRLPRPRPRPLCGPRP :: 0.0478
47) RRIRNRPPRLPRPRPRPMILPRP :: -0.0112
48) RRIRKRPPRLPRPRPRPVGHPRP :: 0.224
49) RRIRNRPPRLPRPRPRPIWEPRP :: -0.131
50) RRIRMRPPRLPRPRPRPAIHPRP :: 0.156
51) RRIRARPPRLPRPRPRPDTTPRP :: 0.0242
52) RRIRPRPPRLPRPRPRPILEPRP :: -0.132
53) RRIRWRPPRLPRPRPRPMEHPRP :: 0.107
